- targetOfAssay: hSSTR2 (Homo sapiens)
- Construct: expressed in transfected cells; host or cells: CHO-K1 or CCL39 cells
- Sequence (P30874 whole entry): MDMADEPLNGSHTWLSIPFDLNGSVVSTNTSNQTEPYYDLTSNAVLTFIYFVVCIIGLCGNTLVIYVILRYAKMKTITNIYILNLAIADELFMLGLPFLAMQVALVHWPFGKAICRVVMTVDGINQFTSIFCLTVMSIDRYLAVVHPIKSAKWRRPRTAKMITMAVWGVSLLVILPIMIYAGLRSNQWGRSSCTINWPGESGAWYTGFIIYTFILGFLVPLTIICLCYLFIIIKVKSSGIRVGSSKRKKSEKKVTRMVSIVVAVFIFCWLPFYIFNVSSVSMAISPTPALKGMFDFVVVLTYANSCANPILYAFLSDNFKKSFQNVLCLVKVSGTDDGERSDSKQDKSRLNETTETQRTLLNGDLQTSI
- experimentDescription: Receptor autoradiography, displacement of 125I-[Leu8,D-Trp22,Tyr25]-SRIF-28 from membrane pellet sections
- Format: binding
- testConditions: Table 3; mean ± SEM when N ≧ 3; read-out: sst2 binding affinity (IC50)
Bridge positions count the residues as written; N and C are the ends. Square brackets hold non-standard residues; d marks the D form. Peptide text beside a SMILES is read from it. Phe(4-NO2) = N[C@@H](Cc1ccc([N+](=O)[O-])cc1)C(=O)O; dPhe(4-NHCONH2) = NC(=O)Nc1ccc(C[C@@H](N)C(=O)O)cc1; Phe(4-NHCONH2) = NC(=O)Nc1ccc(C[C@H](N)C(=O)O)cc1; dTrp(5-F) = N[C@H](Cc1c[nH]c2ccc(F)cc12)C(=O)O; Phe(4-Cl) = N[C@@H](Cc1ccc(Cl)cc1)C(=O)O; 2Nal = N[C@@H](Cc1ccc2ccccc2c1)C(=O)O
quantityName: IC50 (nM)

Check out these entries, answers already filled in.
C[C@@H](O)[C@@H]1NC(=O)[C@H](CCCCN)NC(=O)[C@@H](Cc2c[nH]c3ccc(F)cc23)NC(=O)[C@H](Cc2ccc(NC(N)=O)cc2)NC(=O)[C@H](NC(=O)[C@@H](N)Cc2ccc(Cl)cc2)CSSC[C@@H](C(=O)N[C@@H](Cc2ccc3ccccc3c2)C(N)=O)NC1=O [compound 25] (H-[Phe(4-Cl)][dC][Phe(4-NHCONH2)][dTrp(5-F)]KTC[2Nal]-NH2; disulfide 2-7) = 4.9
C[C@@H](O)[C@@H]1NC(=O)[C@H](CCCCN)NC(=O)[C@@H](Cc2c[nH]c3ccccc23)NC(=O)[C@H](Cc2ccc(NC(N)=O)cc2)NC(=O)[C@H](NC(=O)[C@H](Cc2ccc(Cl)cc2)NC(=O)CCNC(=O)CN2CCN(CC(=O)O)CCN(CC(=O)O)CCN(CC(=O)O)CC2)CSSC[C@@H](C(=O)N[C@@H](Cc2ccc3ccccc3c2)C(N)=O)NC1=O = 46
C[C@@H](O)[C@@H]1NC(=O)[C@H](CCCCN)NC(=O)[C@@H](Cc2ccc(NC(N)=O)cc2)NC(=O)[C@H](Cc2ccc(O)cc2)NC(=O)[C@H](NC(=O)[C@@H](N)Cc2ccc([N+](=O)[O-])cc2)CSSC[C@@H](C(=O)N[C@@H](Cc2ccc3ccccc3c2)C(N)=O)NC1=O [compound 4] (H-[Phe(4-NO2)][dC]Y[dPhe(4-NHCONH2)]KTC[2Nal]-NH2; disulfide 2-7) = 2.6

[P] C[C@@H](O)[C@@H]1NC(=O)[C@H](CCCCN)NC(=O)[C@@H](Cc2c[nH]c3ccccc23)NC(=O)[C@H](Cc2ccc(NC(N)=O)cc2)NC(=O)[C@H](NC(=O)[C@@H](N)Cc2ccc(Cl)cc2)CSSC[C@@H](C(=O)N[C@@H](Cc2ccc(NC(N)=O)cc2)C(N)=O)NC1=O
[Q] CONC(=O)Nc1ccc(C[C@@H]2NC(=O)[C@H](NC(=O)[C@@H](N)Cc3ccc(Cl)cc3)CSSC[C@@H](C(=O)N[C@@H](Cc3ccc4ccccc4c3)C(N)=O)NC(=O)[C@H]([C@@H](C)O)NC(=O)[C@H](CCCCN)NC(=O)[C@@H](Cc3c[nH]c4ccccc34)NC2=O)cc1
[Q] Recorded IC50 values differ for P and Q ; which one is higher? Returns: label corresponding to the selected item.
[A] P
(P: 15 nM, Q: 9.3 nM)

----------
- targetOfAssay: hSSTR3 (Homo sapiens, UniProt P32745)
- Construct: expressed in transfected cells; host or cells: CHO-K1 or CCL39 cells
- Sequence (P32745 whole entry): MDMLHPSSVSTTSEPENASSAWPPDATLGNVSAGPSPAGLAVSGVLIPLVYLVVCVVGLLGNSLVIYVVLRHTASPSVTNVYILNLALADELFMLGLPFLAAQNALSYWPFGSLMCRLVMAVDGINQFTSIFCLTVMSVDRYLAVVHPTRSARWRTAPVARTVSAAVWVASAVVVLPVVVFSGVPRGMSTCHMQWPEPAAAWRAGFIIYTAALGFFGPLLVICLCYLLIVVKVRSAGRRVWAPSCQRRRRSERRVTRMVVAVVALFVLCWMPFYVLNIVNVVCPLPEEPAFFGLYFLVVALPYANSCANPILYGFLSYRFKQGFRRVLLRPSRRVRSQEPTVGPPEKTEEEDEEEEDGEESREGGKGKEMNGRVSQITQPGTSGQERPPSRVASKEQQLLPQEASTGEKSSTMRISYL
- experimentDescription: Receptor autoradiography, displacement of 125I-[Leu8,D-Trp22,Tyr25]-SRIF-28 from membrane pellet sections
- Type: binding
- testConditions: Table 3; mean ± SEM when N ≧ 3; read-out: sst3 binding affinity (IC50)
Reported IC50 is given for each of the following compounds.
A number alone suffices; assume nM.

C[C@@H](O)[C@@H]1NC(=O)[C@H](CCCCN)NC(=O)[C@@H](Cc2c[nH]c3ccccc23)NC(=O)[C@H](Cc2ccc(NC(N)=O)cc2)NC(=O)[C@H](NC(=O)[C@H](Cc2ccc(Cl)cc2)NC(=O)CN2CCN(CC(=O)O)CCN(CC(=O)O)CCN(CC(=O)O)CC2)CSSC[C@@H](C(=O)N[C@@H](Cc2ccc3ccccc3c2)C(N)=O)NC1=O [Peptide No. 14] = 972

Moving on to another compound below.
Sure, the documented IC50 for C[C@@H](O)[C@@H]1NC(=O)[C@H](CCCCN)NC(=O)[C@@H](Cc2c[nH]c3ccccc23)NC(=O)[C@H](Cc2ccc(NC(N)=O)cc2)NC(=O)[C@H](NC(=O)[C@H](Cc2ccc(Cl)cc2)NC(=O)CCNC(=O)CN2CCN(CC(=O)O)CCN(CC(=O)O)CCN(CC(=O)O)CC2)CSSC[C@@H](C(=O)N[C@@H](Cc2ccc3ccccc3c2)C(N)=O)NC1=O is 124

----------
- targetOfAssay: hSSTR3 (Homo sapiens, UniProt P32745)
- Construct: expressed in transfected cells; host or cells: CHO-K1 or CCL39 cells
- experimentDescription: Receptor autoradiography, displacement of 125I-[Leu8,D-Trp22,Tyr25]-SRIF-28 from membrane pellet sections
- Type: binding
- testConditions: Table 3; mean ± SEM when N ≧ 3; read-out: sst3 binding affinity (IC50)
Bridge positions count the residues as written; N and C are the ends. Square brackets hold non-standard residues; d marks the D form. Peptide text beside a SMILES is read from it. dPhe(4-NHCONH2) = NC(=O)Nc1ccc(C[C@@H](N)C(=O)O)cc1; Phe(4-NHCONH2) = NC(=O)Nc1ccc(C[C@H](N)C(=O)O)cc1; dTrp(5-F) = N[C@H](Cc1c[nH]c2ccc(F)cc12)C(=O)O; Phe(4-Cl) = N[C@@H](Cc1ccc(Cl)cc1)C(=O)O; 2Nal = N[C@@H](Cc1ccc2ccccc2c1)C(=O)O
Each entry below carries its reported IC50.
All answers are understood in nM, so give the number only.

CONC(=O)Nc1ccc(C[C@@H]2NC(=O)[C@H](NC(=O)[C@@H](N)Cc3ccc(Cl)cc3)CSSC[C@@H](C(=O)N[C@@H](Cc3ccc4ccccc4c3)C(N)=O)NC(=O)[C@H]([C@@H](C)O)NC(=O)[C@H](CCCCN)NC(=O)[C@@H](Cc3c[nH]c4ccccc34)NC2=O)cc1 [compound 23] = 157

Just so you know, measured IC50 for C[C@@H](O)[C@@H]1NC(=O)[C@H](CCCCN)NC(=O)[C@@H](Cc2c[nH]c3ccccc23)NC(=O)[C@H](Cc2ccc(NC(N)=O)cc2)NC(=O)[C@H](NC(=O)[C@@H](N)Cc2ccc(Cl)cc2)CSSC[C@@H](C(=O)N[C@H](Cc2ccc(NC(N)=O)cc2)C(=O)NCC(=O)O)NC1=O [compound 22] (H-[Phe(4-Cl)][dC][Phe(4-NHCONH2)][dW]KTC[dPhe(4-NHCONH2)]G-OH; disulfide 2-7) came out at 661

Entry C[C@@H](O)[C@@H]1NC(=O)[C@H](CCCCN)NC(=O)[C@@H](Cc2c[nH]c3ccc(F)cc23)NC(=O)[C@H](Cc2ccc(NC(N)=O)cc2)NC(=O)[C@H](NC(=O)[C@@H](N)Cc2ccc(Cl)cc2)CSSC[C@@H](C(=O)N[C@@H](Cc2ccc3ccccc3c2)C(N)=O)NC1=O [compound 25] (H-[Phe(4-Cl)][dC][Phe(4-NHCONH2)][dTrp(5-F)]KTC[2Nal]-NH2; disulfide 2-7) , IC50 reported as 50

----------
- targetOfAssay: hSSTR4 (Homo sapiens)
- Construct: expressed in transfected cells; host or cells: CHO-K1 or CCL39 cells
- Sequence (P31391 whole entry): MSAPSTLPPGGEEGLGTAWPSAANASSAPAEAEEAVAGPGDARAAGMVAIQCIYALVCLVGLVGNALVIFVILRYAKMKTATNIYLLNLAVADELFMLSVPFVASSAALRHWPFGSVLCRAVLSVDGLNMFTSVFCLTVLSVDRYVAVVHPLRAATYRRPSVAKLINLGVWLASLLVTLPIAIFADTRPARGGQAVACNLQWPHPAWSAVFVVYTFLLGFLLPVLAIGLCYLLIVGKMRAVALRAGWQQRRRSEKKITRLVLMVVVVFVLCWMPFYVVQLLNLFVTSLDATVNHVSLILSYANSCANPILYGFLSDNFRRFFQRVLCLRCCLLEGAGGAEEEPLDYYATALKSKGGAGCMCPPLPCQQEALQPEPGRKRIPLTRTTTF
- experimentDescription: Receptor autoradiography, displacement of 125I-[Leu8,D-Trp22,Tyr25]-SRIF-28 from membrane pellet sections
- Assay type: binding
- testConditions: Table 3; mean ± SEM when N ≧ 3; read-out: sst4 binding affinity (IC50)
Bridge positions count the residues as written; N and C are the ends. Square brackets hold non-standard residues; d marks the D form. Peptide text beside a SMILES is read from it. Phe(4-NHCONH2) = NC(=O)Nc1ccc(C[C@H](N)C(=O)O)cc1; Trp(5-F) = N[C@@H](Cc1c[nH]c2ccc(F)cc12)C(=O)O; Phe(4-Cl) = N[C@@H](Cc1ccc(Cl)cc1)C(=O)O; 2Nal = N[C@@H](Cc1ccc2ccccc2c1)C(=O)O
quantityName: pIC50
Quick note: pIC50 means taking -log10 of the concentration in moles per liter.

As a guide, the following entries are already answered.
C[C@@H](O)[C@@H]1NC(=O)[C@H](CCCCN)NC(=O)[C@@H](Cc2c[nH]c3ccccc23)NC(=O)[C@H](Cc2ccc(O)cc2)NC(=O)[C@H](NC(=O)[C@H](Cc2ccc([N+](=O)[O-])cc2)NC(=O)CN2CCN(CC(=O)O)CCN(CC(=O)O)CCN(CC(=O)O)CC2)CSSC[C@@H](C(=O)N[C@H](Cc2ccc(O)cc2)C(N)=O)NC1=O = 6.54
C[C@@H](O)[C@@H]1NC(=O)[C@H](CCCCN)NC(=O)[C@@H](Cc2c[nH]c3ccccc23)NC(=O)[C@H](Cc2ccc(NC(N)=O)cc2)NC(=O)[C@H](NC(=O)[C@H](Cc2ccc(Cl)cc2)NC(=O)CN2CCN(CC(=O)O)CCN(CC(=O)O)CCN(CC(=O)O)CC2)CSSC[C@@H](C(=O)N[C@@H](Cc2ccc3ccccc3c2)C(N)=O)NC1=O [Peptide No. 14] = 6.08
CC(C)C[C@@H]1NC(=O)[C@H](NC(=O)[C@@H](N)Cc2ccc(Cl)cc2)CSSC[C@@H](C(=O)N[C@@H](Cc2ccc3ccccc3c2)C(N)=O)NC(=O)[C@H]([C@@H](C)O)NC(=O)[C@H](CCCCN)NC(=O)[C@@H](Cc2c[nH]c3ccccc23)NC1=O [compound 11] (H-[Phe(4-Cl)][dC]L[dW]KTC[2Nal]-NH2; disulfide 2-7) = 6.04

Attention now shifts to the item below.
Sure, the documented pIC50 for C[C@@H](O)[C@@H]1NC(=O)[C@H](CCCCN)NC(=O)[C@H](Cc2c[nH]c3ccc(F)cc23)NC(=O)[C@H](Cc2ccc(NC(N)=O)cc2)NC(=O)[C@H](NC(=O)[C@@H](N)Cc2ccc(Cl)cc2)CSSC[C@@H](C(=O)N[C@@H](Cc2ccc3ccccc3c2)C(N)=O)NC1=O [compound 26] (H-[Phe(4-Cl)][dC][Phe(4-NHCONH2)][Trp(5-F)]KTC[2Nal]-NH2; disulfide 2-7) is 6.04
